- condition-summary: 288.15 K; 30000 kPa; Liquid; Vibrating tube method
Numbers after ± are expanded uncertainties.
Please go through the items and note down their mass density.
Please answer using the number first and the unit second.

Recorded mass density, per entry:
* CCCC[n+]1ccccc1.F[B-](F)(F)F [1-butylpyridinium tetrafluoroborate] | 1234.24 ± 0.7 kg/m3
* CCC[n+]1ccccc1Oc1ccc(Cl)c[n+]1CCOS(=O)(=O)[O-].F[B-](F)(F)F | 1273.09 ± 0.78 kg/m3
* CCCCCCCC[n+]1cccc(C)c1.F[B-](F)(F)F [N-octyl-3-methylpyridinium tetrafluoroborate] | 1116.64 ± 1.2 kg/m3

# input State the recorded mass density for this entry: CCCC[n+]1cccc(C)c1.N#C[N-]C#N [1-butyl-3-methylpyridinium dicyanamide]
# output 1066.59 ± 1.1 kg/m3

---

Please go through the items and note down their mass density.
- condition-summary: 308.15 K; 50000 kPa; Liquid; Vibrating tube method
Answers are plain numbers, in kg/m3.

- CCCCCCCC[n+]1cccc(C)c1.F[B-](F)(F)F [N-octyl-3-methylpyridinium tetrafluoroborate]: 1112.6
- CCCC[n+]1ccccc1.O=S(=O)([O-])C(F)(F)F [1-butylpyridinium trifluoromethanesulfonate]: 1333.97
- CCC[n+]1ccccc1Oc1ccc(Cl)c[n+]1CCOS(=O)(=O)[O-].F[B-](F)(F)F: 1266.61

Give one value of mass density per listed molecule.
1. CCCC[n+]1cccc(C)c1.N#C[N-]C#N [1-butyl-3-methylpyridinium dicyanamide]
2. CCCC[n+]1ccccc1.F[B-](F)(F)F [1-butylpyridinium tetrafluoroborate]

# output
[1061.71, 1228.36]

---

- condition-summary: 293.15 K; 100 kPa; Liquid; Vibrating tube method
Numbers after ± are expanded uncertainties.
reported-endpoint: mass density
Please answer using the number first and the unit second.

Give one value of mass density per listed compound.
1. CCCC[n+]1ccccc1.F[B-](F)(F)F [1-butylpyridinium tetrafluoroborate]
2. CCCC[n+]1cccc(C)c1.N#C[N-]C#N [1-butyl-3-methylpyridinium dicyanamide]
3. CCC[n+]1ccccc1Oc1ccc(Cl)c[n+]1CCOS(=O)(=O)[O-].F[B-](F)(F)F
4. CCCCCCCC[n+]1cccc(C)c1.F[B-](F)(F)F [N-octyl-3-methylpyridinium tetrafluoroborate]

# output
1218.02 ± 0.41 kg/m3
1052.56 ± 0.95 kg/m3
1257.14 ± 0.44 kg/m3
1099.53 ± 1.1 kg/m3

---

- condition-summary: 318.15 K; 55000 kPa; Liquid; Vibrating tube method
± gives the expanded uncertainty stated by the source.
reported-endpoint: mass density

Recorded mass density, per entry:
* CCCC[n+]1ccccc1.F[B-](F)(F)F [1-butylpyridinium tetrafluoroborate] | 1223.9 ± 0.89 kg/m3
* CCCC[n+]1ccccc1.O=S(=O)([O-])C(F)(F)F [1-butylpyridinium trifluoromethanesulfonate] | 1328.88 ± 1.2 kg/m3
* CCC[n+]1ccccc1Oc1ccc(Cl)c[n+]1CCOS(=O)(=O)[O-].F[B-](F)(F)F | 1261.48 ± 1 kg/m3
* CCCCCCCC[n+]1cccc(C)c1.F[B-](F)(F)F [N-octyl-3-methylpyridinium tetrafluoroborate] | 1108.63 ± 1.3 kg/m3

Would you kindly look at the next entry?
# input State the recorded mass density for this entry: CCCC[n+]1cccc(C)c1.N#C[N-]C#N [1-butyl-3-methylpyridinium dicyanamide]
# output 1057.54 ± 1.1 kg/m3

---

- condition-summary: 308.15 K; 45000 kPa; Liquid; Vibrating tube method
Please go through the items and note down their mass density.
Answers are plain numbers, in kg/m3.

Recorded mass density, per entry:
- CCCC[n+]1cccc(C)c1.N#C[N-]C#N [1-butyl-3-methylpyridinium dicyanamide]: 1059.9
- CCC[n+]1ccccc1Oc1ccc(Cl)c[n+]1CCOS(=O)(=O)[O-].F[B-](F)(F)F: 1264.72
- CCCC[n+]1ccccc1.O=S(=O)([O-])C(F)(F)F [1-butylpyridinium trifluoromethanesulfonate]: 1331.89
- CCCC[n+]1ccccc1.F[B-](F)(F)F [1-butylpyridinium tetrafluoroborate]: 1226.48

Would you kindly look at the next entry?
# input State the recorded mass density for this entry: CCCCCCCC[n+]1cccc(C)c1.F[B-](F)(F)F [N-octyl-3-methylpyridinium tetrafluoroborate]
# output 1110.56

---

- condition-summary: 298.15 K; 60000 kPa; Liquid; Vibrating tube method
reported-endpoint: mass density (kg/m3)
Answers are plain numbers, in kg/m3.

• CCC[n+]1ccccc1Oc1ccc(Cl)c[n+]1CCOS(=O)(=O)[O-].F[B-](F)(F)F = 1276.93
• CCCC[n+]1ccccc1.F[B-](F)(F)F [1-butylpyridinium tetrafluoroborate] = 1238.81
• CCCCCCCC[n+]1cccc(C)c1.F[B-](F)(F)F [N-octyl-3-methylpyridinium tetrafluoroborate] = 1122.5

Would you kindly look at the next entry?
# input State the recorded mass density for this entry: CCCC[n+]1cccc(C)c1.N#C[N-]C#N [1-butyl-3-methylpyridinium dicyanamide]
# output 1070.61

---

- condition-summary: 318.15 K; 50000 kPa; Liquid; Vibrating tube method
reported-endpoint: mass density (kg/m3)
Numbers only, in kg/m3.

* CCCC[n+]1ccccc1.O=S(=O)([O-])C(F)(F)F [1-butylpyridinium trifluoromethanesulfonate] | 1326.61
* CCCC[n+]1cccc(C)c1.N#C[N-]C#N [1-butyl-3-methylpyridinium dicyanamide] | 1055.97

Give one value of mass density per listed molecule.
1. CCC[n+]1ccccc1Oc1ccc(Cl)c[n+]1CCOS(=O)(=O)[O-].F[B-](F)(F)F
2. CCCC[n+]1ccccc1.F[B-](F)(F)F [1-butylpyridinium tetrafluoroborate]

# output
1. 1259.75
2. 1222.02

# input State the recorded mass density for this entry: CCCCCCCC[n+]1cccc(C)c1.F[B-](F)(F)F [N-octyl-3-methylpyridinium tetrafluoroborate]
# output 1106.52

---

- condition-summary: 313.15 K; 45000 kPa; Liquid; Vibrating tube method
Please go through the items and note down their mass density.
Answers are plain numbers, in kg/m3.

Recorded mass density, per entry:
- CCCCCCCC[n+]1cccc(C)c1.F[B-](F)(F)F [N-octyl-3-methylpyridinium tetrafluoroborate]: 1107.51
- CCCC[n+]1ccccc1.O=S(=O)([O-])C(F)(F)F [1-butylpyridinium trifluoromethanesulfonate]: 1328.04
- CCCC[n+]1ccccc1.F[B-](F)(F)F [1-butylpyridinium tetrafluoroborate]: 1223.48
- CCC[n+]1ccccc1Oc1ccc(Cl)c[n+]1CCOS(=O)(=O)[O-].F[B-](F)(F)F: 1261.48

Would you kindly look at the next entry?
# input State the recorded mass density for this entry: CCCC[n+]1cccc(C)c1.N#C[N-]C#N [1-butyl-3-methylpyridinium dicyanamide]
# output 1057.11

---

Please go through the items and note down their mass density.
- condition-summary: 303.15 K; 20000 kPa; Liquid; Vibrating tube method
Give bare numbers, in kg/m3.

Recorded mass density, per entry:
• CCCCCCCC[n+]1cccc(C)c1.F[B-](F)(F)F [N-octyl-3-methylpyridinium tetrafluoroborate] = 1102.65
• CCC[n+]1ccccc1Oc1ccc(Cl)c[n+]1CCOS(=O)(=O)[O-].F[B-](F)(F)F = 1258.37
• CCCC[n+]1cccc(C)c1.N#C[N-]C#N [1-butyl-3-methylpyridinium dicyanamide] = 1053.94
• CCCC[n+]1ccccc1.O=S(=O)([O-])C(F)(F)F [1-butylpyridinium trifluoromethanesulfonate] = 1322.82

Would you kindly look at the next entry?
# input State the recorded mass density for this entry: CCCC[n+]1ccccc1.F[B-](F)(F)F [1-butylpyridinium tetrafluoroborate]
# output 1219.92

---

Please go through the items and note down their mass density.
- condition-summary: 288.15 K; 15000 kPa; Liquid; Vibrating tube method
± gives the expanded uncertainty stated by the source.
Please answer using the number first and the unit second.

* CCCC[n+]1ccccc1.F[B-](F)(F)F [1-butylpyridinium tetrafluoroborate] | 1228.23 ± 0.55 kg/m3

Give one value of mass density per listed compound.
1. CCC[n+]1ccccc1Oc1ccc(Cl)c[n+]1CCOS(=O)(=O)[O-].F[B-](F)(F)F
2. CCCC[n+]1cccc(C)c1.N#C[N-]C#N [1-butyl-3-methylpyridinium dicyanamide]
3. CCCCCCCC[n+]1cccc(C)c1.F[B-](F)(F)F [N-octyl-3-methylpyridinium tetrafluoroborate]

# output
1. 1267.22 ± 0.61 kg/m3
2. 1061.24 ± 1 kg/m3
3. 1109.98 ± 1.1 kg/m3

---

- condition-summary: 313.15 K; 60000 kPa; Liquid; Vibrating tube method
Please go through the items and note down their mass density.
Numbers only, in kg/m3.

* CCCC[n+]1ccccc1.O=S(=O)([O-])C(F)(F)F [1-butylpyridinium trifluoromethanesulfonate] | 1334.95

Give one value of mass density per listed compound.
1. CCCCCCCC[n+]1cccc(C)c1.F[B-](F)(F)F [N-octyl-3-methylpyridinium tetrafluoroborate]
2. CCCC[n+]1ccccc1.F[B-](F)(F)F [1-butylpyridinium tetrafluoroborate]

# output
1113.7
1229.18

Give one value of mass density per listed compound.
1. CCC[n+]1ccccc1Oc1ccc(Cl)c[n+]1CCOS(=O)(=O)[O-].F[B-](F)(F)F
2. CCCC[n+]1cccc(C)c1.N#C[N-]C#N [1-butyl-3-methylpyridinium dicyanamide]

# output
1267
1062.05

src = the NIST ThermoML archive (doi:10.1016/j.fluid.2011.12.029)
